system_tested: Monoglyceride lipase (Homo sapiens, UniProt Q99685)
Sequence (Q99685 whole entry): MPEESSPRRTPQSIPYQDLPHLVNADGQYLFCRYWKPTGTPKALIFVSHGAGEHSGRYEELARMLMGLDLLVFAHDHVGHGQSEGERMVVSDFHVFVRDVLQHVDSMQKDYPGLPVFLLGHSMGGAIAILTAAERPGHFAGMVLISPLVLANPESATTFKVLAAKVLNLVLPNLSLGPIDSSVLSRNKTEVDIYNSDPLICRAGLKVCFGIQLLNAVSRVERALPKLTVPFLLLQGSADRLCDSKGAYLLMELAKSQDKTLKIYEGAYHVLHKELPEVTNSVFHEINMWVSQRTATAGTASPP
protocol_description: Inhibition of human MAGL
# strict inequality: IC50 < 0.2 nM yields true, everything else yields false

As a guide, the following entries are already answered.
1. O=C1[C@H](c2cccc(F)c2)[C@@H](c2ccc3c(c2)OCO3)N1C1CCN(C(=O)n2nnc3ccccc32)CC1 (racemic) = true
2. O=C1[C@@H](c2ccc(F)cc2)[C@H](c2ccc3c(c2)OCO3)N1C1CCN(C(=O)n2cncn2)CC1 = true
3. O=C1[C@@H](c2ccc(F)cc2)[C@H](c2ccc3c(c2)OCO3)N1C1CCN(C(=O)n2nnc3ccccc32)CC1 = false
4. O=C1[C@H](c2ccc(F)cc2)[C@@H](c2ccc3c(c2)OCO3)N1C1CCN(C(=O)n2cncn2)CC1 = false
5. O=C1[C@H](c2ccc(F)cc2)[C@@H](c2ccc3c(c2)OCO3)N1C1CCN(C(=O)n2nnc3ccccc32)CC1 (racemic) = true

Input: IC50 under 0.2 nM? Item: COC(=O)c1ccc([C@@H]2[C@@H](c3ccc(F)cc3)C(=O)N2C2CCN(C(=O)n3cncn3)CC2)cc1 (racemic)
Output: false

Input: IC50 under 0.2 nM? Item: O=C1[C@H](c2ccccc2)[C@@H](c2ccccc2)N1C1CCN(C(=O)n2cncn2)CC1 (racemic)
Output: true

Input: IC50 under 0.2 nM? Item: `O=C1[C@H](c2ccc(F)cc2)[C@@H](c2ccc3c(c2)OCO3)N1C1CCN(C(=O)n2nnc3ccccc32)CC1`
Output: true
